// values below are reported % Ctrl, ABL1(F317L)-phosphorylated
- study_target: kinases (Homo sapiens, UniProt P00519, F317L)
- Construct: purchased Eurofins/DiscoveRx; host or cells: E. coli BL21-derived host (T7 phage display) for most kinases; HEK-293 for the rest
- Sequence (P00519 whole entry F317L): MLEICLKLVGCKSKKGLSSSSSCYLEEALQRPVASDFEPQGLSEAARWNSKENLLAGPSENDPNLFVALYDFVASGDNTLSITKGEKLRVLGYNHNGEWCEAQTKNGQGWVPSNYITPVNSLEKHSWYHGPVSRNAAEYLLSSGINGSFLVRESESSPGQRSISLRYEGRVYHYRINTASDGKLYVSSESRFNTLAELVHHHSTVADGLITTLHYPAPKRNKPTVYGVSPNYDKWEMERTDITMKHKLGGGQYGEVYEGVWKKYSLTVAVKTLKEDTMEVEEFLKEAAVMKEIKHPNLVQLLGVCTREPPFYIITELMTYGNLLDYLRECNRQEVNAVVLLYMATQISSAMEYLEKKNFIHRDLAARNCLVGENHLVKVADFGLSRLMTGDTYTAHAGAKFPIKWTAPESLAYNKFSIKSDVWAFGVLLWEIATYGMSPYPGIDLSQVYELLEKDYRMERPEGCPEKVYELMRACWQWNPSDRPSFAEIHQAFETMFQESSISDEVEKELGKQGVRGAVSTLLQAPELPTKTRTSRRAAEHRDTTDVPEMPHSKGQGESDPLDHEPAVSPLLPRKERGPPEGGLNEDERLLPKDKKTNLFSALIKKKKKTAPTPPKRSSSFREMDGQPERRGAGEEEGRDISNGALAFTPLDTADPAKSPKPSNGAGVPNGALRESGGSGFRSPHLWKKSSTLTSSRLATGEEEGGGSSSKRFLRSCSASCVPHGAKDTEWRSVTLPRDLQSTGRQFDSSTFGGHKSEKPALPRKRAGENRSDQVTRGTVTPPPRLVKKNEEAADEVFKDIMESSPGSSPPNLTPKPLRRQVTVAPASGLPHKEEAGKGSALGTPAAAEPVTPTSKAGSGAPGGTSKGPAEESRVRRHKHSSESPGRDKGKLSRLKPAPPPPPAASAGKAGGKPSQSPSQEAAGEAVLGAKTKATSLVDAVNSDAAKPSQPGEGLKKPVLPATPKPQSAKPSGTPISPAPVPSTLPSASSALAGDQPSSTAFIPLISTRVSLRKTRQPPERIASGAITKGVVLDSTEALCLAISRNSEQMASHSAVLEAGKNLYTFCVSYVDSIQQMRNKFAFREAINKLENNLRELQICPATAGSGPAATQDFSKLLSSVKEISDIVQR
- test: KINOMEscan kinase binding assay (Eurofins/DiscoveRx), % Ctrl
- experimental_conditions: target ABL1(F317L)-phosphorylated; 1 μM
Field format: number, assumed % Ctrl, no unit text.

// recorded % Ctrl, ABL1(F317L)-phosphorylated for `CN1CCSCCOc2cc3c(cc2Cl)NC(=O)/C3=C\c2[nH]ccc2C1=O` : 18

Documented % Ctrl, ABL1(F317L)-phosphorylated of `Cc1cc2c([nH]1)/C=C1\C(=O)Nc3cnc(cc31)-c1cn[nH]c1CNCCN(C)C2=O` : 10

Kindly note the recorded % Ctrl, ABL1(F317L)-phosphorylated for `Cc1cc2c([nH]1)/C=C1\C(=O)Nc3ccc(cc31)-c1c(C)nn(C)c1COCCN(C)C2=O` , which is 89

GET /value?item= `Cc1cc2c([nH]1)/C=C1\C(=O)Nc3cc(Cl)c(cc31)OCCO[C@@H](C(=O)N1CCN(C)CC1)CN(C)C2=O` &field=% Ctrl, ABL1(F317L)-phosphorylated returns 75

###

- study_target: kinases (Homo sapiens, UniProt P07949, V804L)
- Construct: purchased Eurofins/DiscoveRx; host or cells: E. coli BL21-derived host (T7 phage display) for most kinases; HEK-293 for the rest
- Sequence (P07949 29-1114 V804L): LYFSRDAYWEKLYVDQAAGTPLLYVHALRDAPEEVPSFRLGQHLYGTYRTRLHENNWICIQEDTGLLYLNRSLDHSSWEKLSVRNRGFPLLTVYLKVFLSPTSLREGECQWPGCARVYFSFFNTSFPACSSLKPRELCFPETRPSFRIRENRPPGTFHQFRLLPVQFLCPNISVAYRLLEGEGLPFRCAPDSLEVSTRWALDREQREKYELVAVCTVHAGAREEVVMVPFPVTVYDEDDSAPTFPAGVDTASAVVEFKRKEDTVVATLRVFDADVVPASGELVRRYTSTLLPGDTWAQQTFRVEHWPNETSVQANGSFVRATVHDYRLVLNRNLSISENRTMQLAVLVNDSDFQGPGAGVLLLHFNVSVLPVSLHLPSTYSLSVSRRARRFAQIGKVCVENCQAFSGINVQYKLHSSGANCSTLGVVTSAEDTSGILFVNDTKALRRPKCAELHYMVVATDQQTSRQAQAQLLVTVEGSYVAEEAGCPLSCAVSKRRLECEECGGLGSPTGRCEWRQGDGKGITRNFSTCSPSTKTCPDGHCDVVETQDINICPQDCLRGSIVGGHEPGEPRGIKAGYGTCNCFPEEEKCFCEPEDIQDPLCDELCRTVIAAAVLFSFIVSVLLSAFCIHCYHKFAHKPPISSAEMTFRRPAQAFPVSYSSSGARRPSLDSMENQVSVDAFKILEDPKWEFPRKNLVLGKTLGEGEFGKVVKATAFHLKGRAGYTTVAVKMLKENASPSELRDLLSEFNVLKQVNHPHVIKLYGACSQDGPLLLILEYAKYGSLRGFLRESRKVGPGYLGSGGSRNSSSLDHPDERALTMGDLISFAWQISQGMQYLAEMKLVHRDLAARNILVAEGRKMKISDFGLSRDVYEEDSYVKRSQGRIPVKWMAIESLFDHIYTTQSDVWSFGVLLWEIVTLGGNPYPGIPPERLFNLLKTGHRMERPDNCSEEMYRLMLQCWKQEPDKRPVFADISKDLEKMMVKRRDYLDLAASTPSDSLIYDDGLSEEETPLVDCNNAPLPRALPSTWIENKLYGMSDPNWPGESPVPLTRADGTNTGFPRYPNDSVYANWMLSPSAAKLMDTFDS
- test: KINOMEscan kinase binding assay (Eurofins/DiscoveRx), % Ctrl
- experimental_conditions: 1 μM; RET(V804L)
property_measured: % Ctrl, RET(V804L) (% Ctrl)
Give your result in % Ctrl as a bare value.

1. Cc1cc2c([nH]1)/C=C1\C(=O)Nc3cc(Cl)c(cc31)OCCO[C@@H](C(=O)N(C)C)CN(C)C2=O [Ex. 137]    37

Quick note, % Ctrl, RET(V804L) for Cc1cc2c([nH]1)/C=C1\C(=O)Nc3cnc(nc31)N(C)CCCOCCN(C)C2=O [Ex.71] landed at 95

Reported % Ctrl, RET(V804L) ( Cc1cc2c([nH]1)/C=C1\C(=O)Nc3ccc(cc31)OCCOCCNC2=O [Ex. 129] ) = 96

###

- Tested on: kinases
- test: KINOMEscan kinase binding assay (Eurofins/DiscoveRx), % Ctrl
- experimental_conditions: 1 μM; EGFR(L747-T751del, Sins)
property_measured: % Ctrl, EGFR(L747-T751del, Sins)

1) CNC(=O)[C@H]1CN(C)C(=O)c2cc(C)[nH]c2/C=C2\C(=O)Nc3cc(Cl)c(cc32)OCCO1    98 % Ctrl

Tested on kinases, the item `Cc1cc2c([nH]1)/C=C1\C(=O)Nc3cnc(nc31)N(C)CCCOCCN(C)C2=O` showed % Ctrl, EGFR(L747-T751del, Sins) equal to 67 % Ctrl

Form field % Ctrl, EGFR(L747-T751del, Sins) for item `Cc1cc2c([nH]1)/C=C1\C(=O)Nc3ccc(cc31)-c1ccnn1CCOCCN(C)C2=O` on kinases: 77 % Ctrl

Value sought: % Ctrl, EGFR(L747-T751del, Sins), system kinases, item `Cc1cc2c([nH]1)/C=C1\C(=O)Nc3cc(Cl)c(cc31)OCCO[C@@H](C(=O)N(C)C)CN(C)C2=O` . Result: 100 % Ctrl
